Method Description: Single ascending dose plasma pharmacokinetics in healthy volunteers
Assay type: in vivo
Condition Info: human, single dose 20 mg oral solution, fasted, mean ± SD
Assay Readout: Cmax (ng/mL)
The answer is to be given in ng/mL; state only the numeric part.

Return reported Cmax; argument: Cl.N#Cc1cccc(-c2ccc3ncc(-c4cc(F)cc(F)c4)c(N4CCC(N)CC4)c3c2)c1O
167

###

Method Description: Single ascending dose plasma pharmacokinetics in healthy volunteers
Format: in vivo
Condition Info: human, single dose 5 mg oral solution, fasted, mean ± SD
Assay Readout: AUC(0-inf)
Remember to quote the unit after the number.

Entry under review: Cl.N#Cc1cccc(-c2ccc3ncc(-c4cc(F)cc(F)c4)c(N4CCC(N)CC4)c3c2)c1O . Reported AUC(0-inf)?
590 ng·h/mL

Data origin, for the record: paper PMC8894159
